- MEASUREMENT TARGET: T1, CD32b (FcgRIIb) (Homo sapiens, UniProt P31994)
- T1 sequence (P31994 43-310): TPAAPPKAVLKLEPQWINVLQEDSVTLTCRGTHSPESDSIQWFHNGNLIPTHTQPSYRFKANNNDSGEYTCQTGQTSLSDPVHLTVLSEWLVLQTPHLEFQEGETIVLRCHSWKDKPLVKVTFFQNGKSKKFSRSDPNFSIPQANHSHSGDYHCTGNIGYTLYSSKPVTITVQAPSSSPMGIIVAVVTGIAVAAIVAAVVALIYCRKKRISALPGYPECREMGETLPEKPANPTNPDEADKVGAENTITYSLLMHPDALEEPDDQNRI
- ASSAY NOTES: SPR, antibody binding to anti-his Fab captured FcgR-his (% Rmax)
- CONDITION INFO: 1 μM antibody
Reported % Rmax hCD32b values for a set of molecules
The figure you give is taken to be in %; do not add the unit.

Query: Which % Rmax hCD32b is reported for this molecule? mAb8-IgG2.5G1-AY-V27 (protein, left off: another chain or arm of the molecule) constant: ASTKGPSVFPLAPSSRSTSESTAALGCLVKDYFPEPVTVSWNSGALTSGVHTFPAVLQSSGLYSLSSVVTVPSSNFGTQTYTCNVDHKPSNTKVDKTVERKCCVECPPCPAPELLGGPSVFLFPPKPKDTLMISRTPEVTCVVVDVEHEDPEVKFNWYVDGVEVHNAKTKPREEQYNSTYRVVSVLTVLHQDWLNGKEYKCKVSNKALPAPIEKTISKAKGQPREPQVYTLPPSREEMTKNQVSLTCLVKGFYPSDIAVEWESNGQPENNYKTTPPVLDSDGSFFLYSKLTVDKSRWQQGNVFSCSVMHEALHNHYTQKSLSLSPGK
Reply: 77

Now take the following molecule into account.
Query: Which % Rmax hCD32b is reported for this molecule? mAb4-IgG2.3 (protein, left off: another chain or arm of the molecule) constant: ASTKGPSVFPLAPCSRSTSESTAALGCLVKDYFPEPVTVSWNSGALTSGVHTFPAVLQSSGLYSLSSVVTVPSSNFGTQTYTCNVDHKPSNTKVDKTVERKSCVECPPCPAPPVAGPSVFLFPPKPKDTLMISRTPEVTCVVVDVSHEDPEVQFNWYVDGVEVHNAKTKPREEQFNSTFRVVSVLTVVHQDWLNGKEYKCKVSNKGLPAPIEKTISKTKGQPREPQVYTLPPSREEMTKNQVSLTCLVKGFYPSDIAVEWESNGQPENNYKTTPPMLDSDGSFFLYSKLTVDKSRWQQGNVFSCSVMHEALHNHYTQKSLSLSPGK
Reply: 1
